In this section, each of the compounds is paired with its reported Papp.
Experiment: passive permeability, PAMPA, ADME assay (AID 1508612)
Settings: pH 7.4, 30.0 min, 50.0 µM
Reply with just the number (in ×10⁻⁶ cm/s).

Past entries and their recorded results:
[
  {
    "compound": "c1cn2cc(-c3ccc4cn[nH]c4c3)nc(Nc3ccc(N4CCOCC4)cc3)c2n1",
    "Papp [×10⁻⁶ cm/s]": 391
  },
  {
    "compound": "CC[C@@]1(O)C(=O)OCc2c1cc1n(c2=O)Cc2c-1nc1cc(F)c(C)c3c1c2[C@@H](N)CC3",
    "Papp [×10⁻⁶ cm/s]": 370
  },
  {
    "compound": "CN(C)C(=O)NC1CCC(CCN2CCN(c3cccc(Cl)c3Cl)CC2)CC1 (centres undefined)",
    "Papp [×10⁻⁶ cm/s]": 514
  },
  {
    "compound": "NC(=O)C1CCN(c2nc(-c3ccc([N+](=O)[O-])cc3)cs2)CC1",
    "Papp [×10⁻⁶ cm/s]": 604
  },
  {
    "compound": "Cc1cccc(C)c1C(=O)Nc1cccc([S+](=O)([O-])N2CCCCCC2)c1",
    "Papp [×10⁻⁶ cm/s]": 827
  }
]

Suppose we examine the compound `COc1cccc(C(=O)Nc2ccc3oc(-c4ccc5ccccc5c4)nc3c2)c1` ; what Papp value has been reported?
533

// repeat for `CCOc1ccc(CCNC(=O)c2cc3ccncc3n2Cc2cccc(C)c2)cc1OCC` and report
20.6

// repeat for `O=c1cc(N2CCOCC2)oc2c1ccc1ccccc12` and report
294

// repeat for `Cc1cccc(C)c1C(=O)Nc1cccc([S+](=O)([O-])N(C)C)c1` and report
355

// repeat for `Cc1ccccc1-c1nc(NCc2ccc(-c3cccnc3)cc2)c2ccccc2n1` and report
547

// repeat for `CCOC(=O)c1cc(-c2ccco2)nc2c1c(C)nn2CCC#N` and report
989

The measured values listed here are drawn from PubChem BioAssay AID1508612.
